Values from the supplement of paper PMC9170038

Answer each item with its documented apparent KD of MS2 coat protein.
system: MS2 coat protein; experiment: apparent KD of MS2 coat protein, switch ON state; designed switch direction (-1 OFF switch, 1 ON switch): -1; higher = weaker reporter binding; details: FMN input: 0 or 200 uM; Eterna round: R93 (includes R88 designs)
Give bare numbers, in nM.

Answered examples (8):
AAGAAGGCAGGAUAUACAUGAGGAUCACCCAUGUAAAAGAAAGAGGGAAAAGAGAAAAGUAGAAGGGCCAAGAA [Setepenre-meryamun Alexander III] : 27.8
AAAAAACAUGAGGAUCACCCAUGUGAGGAUAUGACGUAAAUAAAGAAAUAAGAAAUCGUCAGAAGGCACAAAAA [Mat - Exclusion 1 - Eli mod - D73] : 28.6
CCUAUGUGAGGAUAUAGCCACAUUACGAAUAAGUAGUGUGGCUAGAAGGCACAUGAGGAUCACCCAUGUAUGGG [Exclusion 4.8 (GC closing FMN)] : 29.9
AAAAAUGGAGGAUAUACAUGAGGAUCACCCAUGUUAGACCUAAAAAAAGGGAAAGAAAGUAGAAGGCCAUAAAA [Ex 3 May 29] : 17.5
AAGACUACAGGAUAUACAUGAGGAUCACCCAUGUAACUGACGGAUAGAUGACGGAGAAGUAGAAGGGUAGUCCA [Ruby 39] : 36.9
AGGAAACAUGAGGAUCACCCAUGUGAGGAUAUUGAAAAGAAAAGAAAAGAAAGAAGAACAAGAAGGCACAAGAA [Tiu] : 29.6
AGUCAUACAGGAUAUACAUGAGGAUCACCCAUGUAAAUCCUAAAAAAAUGAUCCUCAUGUAGAAGGGUAUGACA [EX3 221: Super Stable 21] : 16.8
AAAACACAUGAGGAUCACCCAUGUGAGGAUAUGCUAUGGAAAAUAAAAAUAAAACAUAGCAGAAGGCGCAGGAA [Denovo 20] : 29.8

Problem: // returns reported apparent KD of MS2 coat protein for input UAAAGGAUAGGAUAUACAUGAGGAUCACCCAUGUGAAUAAAUAAAAAAAUAAAAUAAAGUAGAAGGAUCAAUAA [LROPPY Exclusion 3 - v04_deltaG=3.9 break up As]
Result: 32.2
